Exercise: for every item that follows, state its recorded IC50.
Study System: Fatty acid synthase (Homo sapiens, UniProt P49327)
Sequence (P49327 whole entry): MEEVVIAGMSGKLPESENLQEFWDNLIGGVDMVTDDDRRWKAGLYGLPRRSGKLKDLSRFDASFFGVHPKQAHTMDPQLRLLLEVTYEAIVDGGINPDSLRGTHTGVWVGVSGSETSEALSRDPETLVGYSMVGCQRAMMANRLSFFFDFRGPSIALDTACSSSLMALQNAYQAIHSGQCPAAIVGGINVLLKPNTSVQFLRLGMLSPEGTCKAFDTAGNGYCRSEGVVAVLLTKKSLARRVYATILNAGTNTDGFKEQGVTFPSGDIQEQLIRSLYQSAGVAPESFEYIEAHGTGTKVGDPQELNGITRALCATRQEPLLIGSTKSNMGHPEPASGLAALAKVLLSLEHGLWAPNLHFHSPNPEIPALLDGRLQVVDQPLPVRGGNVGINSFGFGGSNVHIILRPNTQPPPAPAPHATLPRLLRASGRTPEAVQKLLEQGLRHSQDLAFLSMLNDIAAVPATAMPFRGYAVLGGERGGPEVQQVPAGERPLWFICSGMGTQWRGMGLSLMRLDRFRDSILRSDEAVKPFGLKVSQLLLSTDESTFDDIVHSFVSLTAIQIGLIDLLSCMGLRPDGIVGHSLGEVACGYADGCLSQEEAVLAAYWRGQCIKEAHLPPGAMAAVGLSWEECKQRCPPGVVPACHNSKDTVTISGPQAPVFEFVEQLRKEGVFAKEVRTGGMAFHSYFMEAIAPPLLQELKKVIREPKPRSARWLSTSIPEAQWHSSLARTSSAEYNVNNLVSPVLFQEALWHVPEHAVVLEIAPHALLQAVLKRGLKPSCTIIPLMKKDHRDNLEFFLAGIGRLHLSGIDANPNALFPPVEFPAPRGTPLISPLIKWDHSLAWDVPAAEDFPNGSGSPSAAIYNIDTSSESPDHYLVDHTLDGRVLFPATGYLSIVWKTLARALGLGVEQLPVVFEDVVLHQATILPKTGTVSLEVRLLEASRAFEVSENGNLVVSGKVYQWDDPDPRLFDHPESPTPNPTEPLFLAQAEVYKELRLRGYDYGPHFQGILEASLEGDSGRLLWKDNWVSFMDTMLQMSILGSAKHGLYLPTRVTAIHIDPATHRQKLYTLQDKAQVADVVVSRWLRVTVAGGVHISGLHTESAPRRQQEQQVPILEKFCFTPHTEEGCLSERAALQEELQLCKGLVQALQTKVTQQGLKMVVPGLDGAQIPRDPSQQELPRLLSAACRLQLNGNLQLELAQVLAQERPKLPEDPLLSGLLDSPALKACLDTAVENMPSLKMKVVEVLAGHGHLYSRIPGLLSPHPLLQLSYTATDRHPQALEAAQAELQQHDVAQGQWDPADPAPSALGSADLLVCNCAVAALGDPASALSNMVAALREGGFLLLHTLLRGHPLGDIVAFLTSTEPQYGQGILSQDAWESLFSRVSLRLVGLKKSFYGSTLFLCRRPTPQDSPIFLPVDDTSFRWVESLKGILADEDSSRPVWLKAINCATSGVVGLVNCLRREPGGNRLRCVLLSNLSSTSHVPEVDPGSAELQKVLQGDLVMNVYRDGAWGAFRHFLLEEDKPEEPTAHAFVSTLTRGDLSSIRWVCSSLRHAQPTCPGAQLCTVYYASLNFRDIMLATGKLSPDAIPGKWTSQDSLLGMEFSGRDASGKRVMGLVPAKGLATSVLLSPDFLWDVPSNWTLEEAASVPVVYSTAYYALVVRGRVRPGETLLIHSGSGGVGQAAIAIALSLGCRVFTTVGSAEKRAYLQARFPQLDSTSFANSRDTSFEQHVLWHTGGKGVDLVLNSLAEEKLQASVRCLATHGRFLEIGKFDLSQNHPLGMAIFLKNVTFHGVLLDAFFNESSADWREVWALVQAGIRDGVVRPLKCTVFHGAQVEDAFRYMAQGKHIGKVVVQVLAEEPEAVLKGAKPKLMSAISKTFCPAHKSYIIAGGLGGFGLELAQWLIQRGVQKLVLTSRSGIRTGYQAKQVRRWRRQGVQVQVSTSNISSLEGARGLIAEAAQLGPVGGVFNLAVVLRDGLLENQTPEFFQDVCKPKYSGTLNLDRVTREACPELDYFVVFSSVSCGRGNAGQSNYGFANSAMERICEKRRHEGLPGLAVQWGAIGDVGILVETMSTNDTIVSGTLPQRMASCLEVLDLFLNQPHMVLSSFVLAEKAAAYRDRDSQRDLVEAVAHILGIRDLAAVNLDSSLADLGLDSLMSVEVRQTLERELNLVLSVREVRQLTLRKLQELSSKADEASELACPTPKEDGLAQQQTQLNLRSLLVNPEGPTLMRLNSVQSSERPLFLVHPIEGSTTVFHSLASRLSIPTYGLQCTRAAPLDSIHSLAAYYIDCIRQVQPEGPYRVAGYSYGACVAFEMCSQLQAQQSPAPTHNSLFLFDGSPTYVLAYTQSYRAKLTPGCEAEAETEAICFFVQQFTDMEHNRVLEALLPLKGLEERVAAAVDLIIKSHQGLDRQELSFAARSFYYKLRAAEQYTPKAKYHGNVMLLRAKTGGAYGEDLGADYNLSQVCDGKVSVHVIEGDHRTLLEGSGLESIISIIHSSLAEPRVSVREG
Experimental Protocol: inhibition of human FAS-TE enzyme activity – biochemical, endpoint fluorescence intensity, uHTS hits, dose response (AID 624327);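 further: fluorescence from hydrolysis of an O-methyl fluorescein acyl ester substrate by the enzyme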
Assay type: functional
The source made the active and inactive calls. No stated cut-off is given here; in the data, active = IC50 of 20 µM or less and inactive = more.

CC(NC(=O)Cn1cc([N+](=O)[O-])cn1)c1ccc(C(C)(C)C)cc1 (stereo not given) = 4.06 µM (active)
COc1ccc(C2=NN(C(=O)CSc3nc(=O)n4ccc(C)cc4n3)C(c3ccc(C)cc3)C2)cc1 (stereo not given) = 9.17 µM (active)

Working through the 3 compounds below one at a time, give IC50 for each.
1. Cc1ccc2c(c1)C(c1ccccc1)N(C(=O)c1cccc([N+](=O)[O-])c1)CC(=O)N2 (stereo not given)
2. COc1cccc(NC(C)C(=O)Nc2cc([N+](=O)[O-])ccc2Cl)c1 (stereo not given)
3. CCO[C@H]1OC(C(=O)NCc2ccccc2)=C[C@@H](C2CCCCC2)[C@@H]1CCCO

Return:
2.57 µM (active)
9.92 µM (active)
7.45 µM (active)
